study-system: T1, PSCA (prostate stem cell antigen), human, PSCA v.1 (human, UniProt O43653 12-83)
T1 construct: whole, on cells; also called PSCA变体1; 人PSCA
T1 sequence (looked up): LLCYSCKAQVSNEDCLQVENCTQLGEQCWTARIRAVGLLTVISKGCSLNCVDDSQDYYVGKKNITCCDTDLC
test-description: FACS titration on SW780 cells, sigmoidal dose-response fit (Graphpad Prism)
property-measured: Kd (pM)
One number for each entry, in pM.

Kd reported for this binder Ha1-4.117 (antibody, V domains shown) VH: QVQLQESGPGLVKPSQTLSLTCTVSGGSISSGGYYWIWIRQHPGKGLEWIGYIYYNGNTYYNPSLKSRVTMSVDTSKNQFSLKLSSVTAADTAVYYCARDGITMIRGYYYGMDVWGQGTTVTVSS VL: QLTQSPSSVSASVGDRVTITCRASRGISSWLAWYQQKPGKAPKLLIYTASSLQSGVPSRFSGSGSGTDFTLTISSLQPEDFATYYCQQAYSFPRTFGQGTKVEIKR : 320
